EXPERIMENT_SUMMARY: Stability (placement) test of ADCs at 40° C. in dark for 14 days, DAR and polymer content
Type: physicochemical
CONDITION_CONTEXT: Day 0, 40° C. in dark
*1 amine or outer side, *2 acyl side, *3 side chain or, on linkers, in order; H or OH if unused. Where a SMILES comes first, the peptide text is derived from it. [ ]: non-standard residue; d: D form. The star is where a group is joined. MaleimidoPEG4propanoyl = O=C1C=CC(=O)N1CCOCCOCCOCCOCCC(=O)*; X2 = CO[C@@H]([C@H]1CCCN1[*:1])[C@@H](C)C(=O)[*:2]; Dil = CC[C@H](C)[C@H](NC)[C@@H](CC(=O)O)OC; X1 = O=C(CN1CCOCCN([*:1])CCOCC1)[*:2]; PABC = O=C(OCc1ccc(N[*:1])cc1)[*:2]; X3 = C[C@@H](N*)[C@@H](O)c1ccccc1; NMeV = CN[C@H](C(=O)O)C(C)C
MEASURED_QUANTITY: DAR
Reply: number alone, nothing else.

Use these answered entries as a reference point.
C=C1C[C@@H]2CC[C@@]34C[C@H]5OC6C(O[C@H]7CC[C@H](CC(=O)C[C@@H]8[C@@H](OC)[C@@H](C[C@H](O)CNC(=O)CNC(=O)[C@H](Cc9ccccc9)NC(=O)CNC(=O)CNC(=O)CN9CCOCCOCCN(C(=O)CCCC%10C(=O)C=CC%10=O)CCOCCOCC9)O[C@H]8C[C@H]8O[C@@H](CC[C@@H]1O2)C[C@@H](C)C8=C)O[C@@H]7[C@@H]6O3)[C@H]5O4 [Example 41]; 3.84
CC[C@@]1(O)C(=O)OCc2c1cc1n(c2=O)Cc2c-1nc1cc(F)c(C)c3c1c2[C@@H](NC(=O)COCNC(=O)CNC(=O)CNC(=O)CNC(=O)CN1CCOCCN(C(=O)CCN2C(=O)C=CC2=O)CCOCC1)CC3 [Example 28]; 3.84
C=C1C[C@@H]2CC[C@@]34C[C@H]5OC6C(O[C@H]7CC[C@H](CC(=O)C[C@@H]8[C@@H](OC)[C@@H](C[C@H](O)CNC(=O)CNC(=O)[C@H](Cc9ccccc9)NC(=O)CNC(=O)CN9CCOCCOCCN(C(=O)CCCC%10C(=O)C=CC%10=O)CCOCCOCC9)O[C@H]8C[C@H]8O[C@@H](CC[C@@H]1O2)C[C@@H](C)C8=C)O[C@@H]7[C@@H]6O3)[C@H]5O4 [Example 42]; 4.12
C=C1C[C@@H]2CC[C@@]34C[C@H]5OC6C(C[C@H]7CC[C@H](CC(=O)C[C@@H]8[C@@H](OC)[C@@H](C[C@H](O)CNC(=O)CNC(=O)[C@H](Cc9ccccc9)NC(=O)CNC(=O)CNC(=O)CCC(=O)N9CCOCCN(C(=O)CCN%10C(=O)C=CC%10=O)CCOCC9)O[C@H]8C[C@H]8O[C@@H](CC[C@@H]1O2)C[C@@H](C)C8=C)O[C@@H]7[C@@H]6O3)[C@H]5O4 [Example 26]; 3.92

Any idea what its DAR is? The compound is C=C1C[C@@H]2CC[C@@]34C[C@H]5OC6C(O[C@H]7CC[C@H](CC(=O)C[C@@H]8[C@@H](OC)[C@@H](C[C@H](O)CNC(=O)CNC(=O)[C@H](Cc9ccccc9)NC(=O)CNC(=O)CN9CCOCCOCCN(C(=O)CCCCCN%10C(=O)C=CC%10=O)CCOCCOCC9)O[C@H]8C[C@H]8O[C@@H](CC[C@@H]1O2)C[C@@H](C)C8=C)O[C@@H]7[C@@H]6O3)[C@H]5O4 [Example 40] 3.78

May I ask what DAR has been recorded for C=C1C[C@@H]2CC[C@@]34C[C@H]5OC6C(O[C@H]7CC[C@H](CC(=O)C[C@@H]8[C@@H](OC)[C@@H](C[C@H](O)CNC(=O)CNC(=O)[C@H](Cc9ccccc9)NC(=O)CNC(=O)CNC(=O)CN9CCOCCOCCN(C(=O)CCCCCN%10C(=O)C=CC%10=O)CCOCCOCC9)O[C@H]8C[C@H]8O[C@@H](CC[C@@H]1O2)C[C@@H](C)C8=C)O[C@@H]7[C@@H]6O3)[C@H]5O4 [Example 39] ? 4.30

Entry under review: CC[C@H](C)[C@@H]([C@@H](CC(=O)N1CCC[C@@H]1[C@H](OC)[C@@H](C)C(=O)N[C@H](C)[C@@H](O)c1ccccc1)OC)N(C)C(=O)[C@@H](NC(=O)[C@H](C(C)C)N(C)C(=O)OCc1ccc(NC(=O)CNC(=O)[C@H](Cc2ccccc2)NC(=O)CNC(=O)CNC(=O)CN2CCOCCN(C(=O)CCOCCOCCOCCOCCN3C(=O)C=CC3=O)CCOCC2)cc1)C(C)C [Example 85] (MaleimidoPEG4propanoyl-[X1]GGFG[PABC][NMeV]V[Dil][X2]-X3) . Reported DAR? 4.04
